Target: T1, human IGFBP7 recombinant protein (UniProt Q16270 27-282, biotinylated with EZ-LINK NHS-PEG4 biotin in the BLI assays (sites not given))
T1 chain: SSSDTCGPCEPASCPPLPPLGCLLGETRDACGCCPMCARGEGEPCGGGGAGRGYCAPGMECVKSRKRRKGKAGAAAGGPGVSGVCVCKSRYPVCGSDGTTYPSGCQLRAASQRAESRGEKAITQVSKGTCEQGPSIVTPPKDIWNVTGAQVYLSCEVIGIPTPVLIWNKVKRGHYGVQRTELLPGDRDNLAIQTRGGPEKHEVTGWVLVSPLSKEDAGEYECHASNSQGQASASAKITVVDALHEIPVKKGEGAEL
Test: BLI
Quantity name: pKd
Reminder that pKd is minus the log10 of a molar concentration.

Sample bispecific anti-IGFBP7 nanobody Fc-fusion construct A1D4-mIgG2a (bispecific antibody) VQLQESGGGLVQAGGSLRLSCAASGSLFAIDKWGWYRQVAGNERELVAWRYSPVSINYGDSVKGRFTVSGDSSRKRVYLQMNSLKPDDTAVYRCAAVISGAWYWGQGTQVTVSSVQLQESGGGLVQTGGSLRLSCAASGRSFTFSSYAMGWFRHAPGKEREFLTAITWSGDYTYYTDSVKGRSTISRDNAKNTVYLQLNNLKPEDTAVYYCAAKFSQVSAFFATVSEYEYWGQGTQVTVSS ; pKd observed: 9.04

Sample D4-mIgG2a nanobody Fc-fusion (Fc fusion, VHH fused with mIgG2a Fc fragment, expressed in Expi293 cells; also called monospecific D4-mIgG2a; not shown: mouse IgG2a Fc fragment (mIgG2a Fc)) VQLQESGGGLVQTGGSLRLSCAASGRSFTFSSYAMGWFRHAPGKEREFLTAITWSGDYTYYTDSVKGRSTISRDNAKNTVYLQLNNLKPEDTAVYYCAAKFSQVSAFFATVSEYEYWGQGTQVTVSS ; pKd observed: 8.91

Sample A1-mIgG1 nanobody Fc-fusion (Fc fusion, VHH fused with mIgG1 Fc fragment, expressed in Expi293 cells; also called monospecific A1-mIgG1; not shown: mouse IgG1 Fc fragment (mIgG1 Fc)) VQLQESGGGLVQAGGSLRLSCAASGSLFAIDKWGWYRQVAGNERELVAWRYSPVSINYGDSVKGRFTVSGDSSRKRVYLQMNSLKPDDTAVYRCAAVISGAWYWGQGTQVTVSS ; pKd observed: 8.42

Values were extracted from patent US20240150466A1.
